Just for reference, patent US20250134907A1 is where these values come from.

target-or-system: RXFP2 (Homo sapiens, UniProt Q8WXD0)
Construct: expressed in transfected cells
Sequence (Q8WXD0 whole entry): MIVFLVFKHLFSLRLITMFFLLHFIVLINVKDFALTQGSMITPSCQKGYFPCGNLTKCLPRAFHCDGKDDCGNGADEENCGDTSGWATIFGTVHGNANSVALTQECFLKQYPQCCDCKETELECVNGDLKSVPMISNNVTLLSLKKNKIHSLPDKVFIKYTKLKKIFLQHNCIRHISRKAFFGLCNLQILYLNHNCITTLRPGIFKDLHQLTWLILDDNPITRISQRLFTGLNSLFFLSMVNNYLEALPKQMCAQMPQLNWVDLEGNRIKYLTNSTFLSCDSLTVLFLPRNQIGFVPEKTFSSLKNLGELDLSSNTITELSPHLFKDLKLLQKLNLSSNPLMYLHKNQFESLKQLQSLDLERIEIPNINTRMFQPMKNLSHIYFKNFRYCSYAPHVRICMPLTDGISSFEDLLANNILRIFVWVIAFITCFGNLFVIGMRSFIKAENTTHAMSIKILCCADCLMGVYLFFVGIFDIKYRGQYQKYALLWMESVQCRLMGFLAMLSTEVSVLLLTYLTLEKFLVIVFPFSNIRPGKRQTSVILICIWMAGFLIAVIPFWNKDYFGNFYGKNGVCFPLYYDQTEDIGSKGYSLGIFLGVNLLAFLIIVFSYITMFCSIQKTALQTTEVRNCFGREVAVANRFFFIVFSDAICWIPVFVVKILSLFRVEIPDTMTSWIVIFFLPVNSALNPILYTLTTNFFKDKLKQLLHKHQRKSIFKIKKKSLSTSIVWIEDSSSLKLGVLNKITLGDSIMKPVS
assay-method-text: HTRF cAMP assay in HEK293T cells stably expressing RXFP2 (HEK-RXFP2)
Assay type: cell-based
condition-set: condition (c): 7,500 cells/well, IBMX omitted
pEC50: −log10 of the molar value.
measurement-name: pEC50

• O=C1Nc2ccc(-c3cc(C4CC4)cc(C(F)(F)F)c3)cc2C(=O)N2CCN(C(=O)COc3ccc(OC(F)(F)F)cc3Br)C[C@@H]12 = 6.72

(a) COc1cc(OC(F)(F)F)ccc1OCC(=O)N1CCN2C(=O)c3cc(-c4cc(C(F)(F)F)cc(C(F)(F)F)c4)ccc3NC(=O)[C@@H]2C1
(b) O=C1Nc2ccc(-c3cc(C(F)(F)F)cc(C(F)(F)F)c3)cc2CN2CCN(C(=O)COc3ccc(OC(F)(F)F)cc3I)C[C@@H]12
(c) O=C1Nc2cnc(-c3cc(C(F)(F)F)cc(C(F)(F)F)c3)cc2C(=O)N2CCN(C(=O)COc3ccc(OC(F)(F)F)cc3I)C[C@@H]12 (single isomer, unassigned)
-- ask Sort entries by pEC50 from minimum to maximum value. Lab note: final answer is the ordered label list.
-- reply b, c, a

###

assay-method-text: Pharmacokinetic study in female mice (plasma, liver, bone)
Assay type: in vivo, female C57/BL6 mice
condition-set: female, C57/BL6, mouse, bone, po, 10 mg/kg; PO (QD*3) 10 mg/kg
measurement-name: Cmax (ng/g)
Only the number, expressed in ng/g, is required.

-- ask Data request, read-out Cmax, for O=C1Nc2ccc(-c3cc(C(F)(F)F)cc(C(F)(F)F)c3)cc2C(=O)N2CCN(C(=O)COc3ccc(OC(F)(F)F)cc3I)C[C@@H]12 [Example 187]
-- reply 298

###

target-or-system: RXFP2 (Homo sapiens)
Construct: expressed in transfected cells
assay-method-text: HTRF cAMP assay in HEK293T cells stably expressing RXFP2 (HEK-RXFP2)
Format: cell-based
condition-set: condition (a): 20,000 cells/well, IBMX 200 μM
measurement-name: EC50 (nM)

(A) O=C1Nc2ccc(-c3cccc(C(F)(F)F)c3)cc2C(=O)N2CCN(C(=O)COc3ccc(OC(F)(F)F)cc3F)CC12 (stereo not shown)
(B) O=C1Nc2ccc(-c3cccc(C(F)(F)F)c3)cc2C(=O)N2CCN(C(=O)COc3ccc(C(F)(F)F)c(F)c3F)CC12 (stereo not shown)
-- ask Of the two listed items, which has the higher EC50? First: A Second: B Pick one; state its label.
-- reply A

###

assay-method-text: Pharmacokinetic study in female mice (plasma, liver, bone)
Format: in vivo, female C57/BL6 mice
condition-set: female, C57/BL6, mouse, plasma, iv, 3 mg/kg, Table 10; IV 3 mg/kg; read-out: Area under the curve-AUCinf
measurement-name: AUC(0-inf) (ng·h/mL)
Only the number, expressed in ng·h/mL, is required.

-- ask Data request, read-out AUC(0-inf), for O=C1Nc2ccc(-c3cc(C(F)(F)F)cc(C(F)(F)F)c3)cc2C(=O)N2CCN(C(=O)COc3ccc(OC(F)(F)F)cc3I)C[C@@H]12
-- reply 3200

###

assay-method-text: Pharmacokinetic study in female mice (plasma, liver, bone)
Format: in vivo, female C57/BL6 mice
condition-set: female, C57/BL6, mouse, bone, po, 10 mg/kg; PO 10 mg/kg, one administration
measurement-name: Cmax (ng/g)
Only the number, expressed in ng/g, is required.

-- ask Data request, read-out Cmax, for O=C1Nc2ccc(-c3cc(C(F)(F)F)cc(C(F)(F)F)c3)cc2C(=O)N2CCN(C(=O)COc3ccc(OC(F)(F)F)cc3I)C[C@@H]12 [Example 187]
-- reply 174

###

assay-method-text: Pharmacokinetic study in female mice (plasma, liver, bone)
Type: in vivo, female C57/BL6 mice
condition-set: female, C57/BL6, mouse, plasma, po, 10 mg/kg, plasma; PO (QD*3) 10 mg/kg; read-out: t1/2 (converted)
measurement-name: half-life (h)
Only the number, expressed in h, is required.

-- ask Data request, read-out half-life, for O=C1Nc2ccc(-c3cc(C(F)(F)F)cc(C(F)(F)F)c3)cc2C(=O)N2CCN(C(=O)COc3ccc(OC(F)(F)F)cc3I)C[C@@H]12
-- reply 5.88

###

assay-method-text: Pharmacokinetic study in female mice (plasma, liver, bone)
Assay type: in vivo, female C57/BL6 mice
condition-set: female, C57/BL6, mouse, plasma; Table 10; IV 3 mg/kg; read-out: Total clearance after IV administration-CLobs
measurement-name: clearance (mL/min/kg)
Only the number, expressed in mL/min/kg, is required.

-- ask Data request, read-out clearance, for O=C1Nc2ccc(-c3cc(C(F)(F)F)cc(C(F)(F)F)c3)cc2C(=O)N2CCN(C(=O)COc3ccc(OC(F)(F)F)cc3I)C[C@@H]12
-- reply 15.6

###

target-or-system: RXFP2 (Homo sapiens, UniProt Q8WXD0)
Construct: expressed in transfected cells
assay-method-text: HTRF cAMP assay in HEK293T cells stably expressing RXFP2 (HEK-RXFP2)
Assay type: cell-based
condition-set: condition (c): 7,500 cells/well, IBMX omitted; normalized to 100 nM INSL3 cAMP response
measurement-name: % EFF vs. 100 nM INSL3 (c) (%)

Some compounds with known % EFF vs. 100 nM INSL3 (c) results, for comparison:
• O=C1Nc2ccc(-c3cc(C4CC4)cc(C(F)(F)F)c3)cc2C(=O)N2CCN(C(=O)COc3ccc(OC(F)(F)F)cc3I)C[C@@H]12 = 77.31
• Cc1cc(OC(F)F)ccc1OCC(=O)N1CCN2C(=O)c3cc(-c4cccc(C(F)F)c4)ccc3NC(=O)[C@@H]2C1 = 17.49
• O=C1Nc2ccc(-c3cc(C(F)(F)F)cc(C(F)(F)F)c3)nc2C(=O)N2CCN(C(=O)COc3ccc(OC(F)(F)F)cc3I)C[C@@H]12 (single isomer, unassigned) = 60.89
• O=C1Nc2cnc(-c3cc(C(F)(F)F)cc(C(F)(F)F)c3)cc2C(=O)N2CCN(C(=O)COc3ccc(OC(F)(F)F)cc3Br)C[C@@H]12 (single isomer, unassigned) = 104.06

(I) O=C1Nc2ncc(-c3cc(C(F)(F)F)cc(C(F)(F)F)c3)cc2C(=O)N2CCN(C(=O)COc3ccc(OC(F)(F)F)cc3I)C[C@@H]12 (single isomer, unassigned)
(II) O=C1Nc2ccc(-c3cc(O)cc(C(F)(F)F)c3F)cc2C(=O)N2CCN(C(=O)COc3ccc(OC(F)(F)F)cc3Br)C[C@@H]12
-- ask Which record shows the lower % EFF vs. 100 nM INSL3 (c): the first, I , or the second, II ? Pick one; state its label.
-- reply II
(II: 67.97%, I: 102.23%)

###

assay-method-text: Pharmacokinetic study in female mice (plasma, liver, bone)
Format: in vivo, female C57/BL6 mice
condition-set: female, C57/BL6, mouse, liver, iv, 3 mg/kg; IV 3 mg/kg
measurement-name: Cmax (ng/g)
Only the number, expressed in ng/g, is required.

-- ask Data request, read-out Cmax, for O=C1Nc2ccc(-c3cc(C(F)(F)F)cc(C(F)(F)F)c3)cc2C(=O)N2CCN(C(=O)COc3ccc(OC(F)(F)F)cc3I)C[C@@H]12 [Example 187]
-- reply 28000

###

target-or-system: RXFP2 (Homo sapiens, UniProt Q8WXD0)
Construct: expressed in transfected cells
assay-method-text: HTRF cAMP assay in HEK293T cells stably expressing RXFP2 (HEK-RXFP2)
Assay type: cell-based
condition-set: condition (a): 20,000 cells/well, IBMX 200 μM; maximum cAMP response normalized to 1 nM INSL3 response
Procedure: Compound efficacy and EC50 were determined by measuring cAMP induction in vitro. HEK293T cells stably expressing RXFP2 (HEK-RXFP2) produce cAMP when RXFP2 is activated, which can be measured in an antibody-based immunoassay utilizing a fluorescent readout (cAMP Gs HiRange Kit, PerkinElmer, Waltham, MA). […] When EC50 could not be calculated from the dose-response curve, EC50 is listed as not determined (ND).
measurement-name: % EFF vs. 1 nM INSL3 (a) (%)

- O=C1Nc2ccc(-c3cccc(C(F)(F)F)c3)cc2C(=O)N2CCN(C(=O)COc3ccc(C(F)(F)F)c(F)c3F)CC12 (stereo not shown) [Example 68]: 33.99

(P) Cc1cc(OC(F)(F)F)ccc1OCC(=O)N1CCN2C(=O)c3cc(-c4cccc(C(F)(F)F)c4)ccc3NC(=O)[C@H]2C1 [Example 121]
(Q) O=C1Nc2ccc(-c3cccc(C(F)(F)F)c3)cc2C(=O)N2CCN(C(=O)COc3ccccc3)C[C@@H]12 [Example 112]
(R) Cc1cc(-c2ccc3c(c2)C(=O)N2CCN(C(=O)COc4ccc(OC(F)(F)F)cc4Cl)CC2C(=O)N3)cc(C(F)(F)F)c1 (stereo not shown) [Example 105]
-- ask Sort entries by % EFF vs. 1 nM INSL3 (a) from minimum to maximum value. Lab note: final answer is the ordered label list.
-- reply Q, P, R
(Q: 12.93%, P: 28.28%, R: 143.62%)
